Target: CRTH2 (Homo sapiens)
Construct: expressed in transfected cells; host or cells: CHO cells
Sequence (Q9Y5Y4 1-395): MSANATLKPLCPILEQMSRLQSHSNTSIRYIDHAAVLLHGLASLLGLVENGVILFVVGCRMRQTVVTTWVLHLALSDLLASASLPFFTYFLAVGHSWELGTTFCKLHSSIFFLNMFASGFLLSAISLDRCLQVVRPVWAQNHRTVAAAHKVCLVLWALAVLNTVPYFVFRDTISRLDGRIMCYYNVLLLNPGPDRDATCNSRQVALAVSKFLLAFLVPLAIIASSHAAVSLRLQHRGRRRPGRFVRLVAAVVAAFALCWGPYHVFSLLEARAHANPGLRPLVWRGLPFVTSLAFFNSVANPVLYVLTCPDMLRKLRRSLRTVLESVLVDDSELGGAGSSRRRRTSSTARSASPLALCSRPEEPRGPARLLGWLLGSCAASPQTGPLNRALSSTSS
Assay: FRET based competitive immunoassay (cAMP) in CRTH2 expressing CHO cells
Type: cell-based
Conditions: CRTH2 expressing CHO cells incubated with forskolin and PGD2; Eu3+ cryptate-labeled anti-cAMP and d2-labeled cAMP
Attribute Measured: IC50 (nM)

Example results:
>>> print(df.to_string())
                                   compound           system_name  attribute_measured  quantitative_result
0  Cc1c(-c2nn(CC(F)(F)F)c(=O)c3ccccc23)c2ccccc2n1CC(=O)O [Example 177]  CRTH2 (Homo sapiens)                IC50                  215
1  Cc1c(-c2nn(Cc3cccnc3)c(=O)c3ccccc23)c2cc(F)ccc2n1CC(=O)O [Example 135]  CRTH2 (Homo sapiens)                IC50                    5
2  Cc1c(-c2ccc(=O)n(Cc3ccccc3)n2)c2cc(F)cc(Cl)c2n1CC(=O)O [Example 231]  CRTH2 (Homo sapiens)                IC50                  401

(a) Cc1c(Cc2ccc(=O)n(Cc3ccc(F)cc3F)c2)c2ccccc2n1CC(=O)O [Example 21]
(b) Cc1c(-c2ccc(OC(C)C)nc2)c2cc(F)ccc2n1CC(=O)O [Example 277]
Larger number for IC50: a , or b ? Mark your selection by writing its label.
b
(b: 71 nM, a: 18 nM)
